// values below are reported T/C
- Test system: P388 leukemia ip, CD2F1 mice, survival T/C
- TEST NAME: NCI In Vivo Anticancer Drug Screen. Data for tumor model P388 Leukemia (intraperitoneal) in CD2F1 (CDF1) mice
- TEST SETTINGS: endpoint: median survival time; dose: 1.56 mg/kg/injection; schedule: Q01DX009 (ip); vehicle: saline; higher = longer survival
Inconclusive results and toxic doses are left out.

# count of solved cases: 5
[[record]]
smiles_record = "NS(=O)(=O)c1ccc2c(=O)c(C(=O)O)c[nH]c2c1"
readout = "T/C"
recorded_measurement = "98 % of control"

[[record]]
smiles_record = "[Cl][Ni][Cl]"
readout = "T/C"
recorded_measurement = "103 % of control"

[[record]]
smiles_record = "C=CC[P+](Cc1cccc(C)c1)(c1ccccc1)c1ccccc1"
readout = "T/C"
recorded_measurement = "111 % of control"

[[record]]
smiles_record = "COCCNCCN1CCN(CCCN2c3ccccc3Sc3ccc(C(F)(F)F)cc32)CC1"
readout = "T/C"
recorded_measurement = "104 % of control"

[[record]]
smiles_record = "CCCCCCCCCCCC[N+]1(CC)CCCC1"
readout = "T/C"
recorded_measurement = "100 % of control"


For the next question, use this molecule.
input: Entry "[CH3][Sn]([CH3])([Cl])[O][Sn]([CH3])([CH3])[Cl]" has what T/C?
output: 115 % of control

* * *

- System: P388 leukemia ip, CD2F1 mice, survival T/C
- TEST NAME: NCI In Vivo Anticancer Drug Screen. Data for tumor model P388 Leukemia (intraperitoneal) in CD2F1 (CDF1) mice
- TEST SETTINGS: endpoint: median survival time; dose: 25.0 mg/kg/injection; schedule: Q01DX005 (ip); vehicle: saline with Tween-80; higher = longer survival
- Description: The antitumor activity of compounds was measured in mice bearing transplantable tumors. Survival or tumor size were measured and the results are expressed as the measurement made in the treated group (T) divided by the measurement made in the vehicle treated control group (C). The tumor model used in this assay is P388 Leukemia (intraperitoneal) in CD2F1 (CDF1) mice
Toxic doses and inconclusive results are not listed.
READOUT: T/C

See these solved cases before continuing.
[[record]]
compound = "O=C1CN(c2ccccc2)C(=O)CN1/N=C/c1ccc[nH]1"
readout = "T/C"
recorded_measurement = "97 % of control"

[[record]]
compound = "C(=N\\Nc1nnc(-c2ccccc2)c(-c2ccccc2)n1)/c1cccnc1"
readout = "T/C"
recorded_measurement = "96 % of control"

[[record]]
compound = "CCCCCC(CN(C)C)C(=O)/C=C/c1ccc(C)cc1 (configuration not stated)"
readout = "T/C"
recorded_measurement = "100 % of control"

[[record]]
compound = "Cc1ccc(NC(=S)C#N)cc1Cl"
readout = "T/C"
recorded_measurement = "90 % of control"

[[record]]
compound = "COc1ccccc1N=NC1=C2Sc3ccccc3N=C1N(c1ccccn1)C(=S)N2c1ccc(Cl)cc1"
readout = "T/C"
recorded_measurement = "100 % of control"

[[record]]
compound = "CN(C)CC1CCc2c(ccc3ccccc23)C1=O (configuration not stated)"
readout = "T/C"
recorded_measurement = "103 % of control"

[[record]]
compound = "CCC12CCCN3CCc4c(n(c5ccc(Br)cc45)C(=O)CC1)C32 (configuration not stated)"
readout = "T/C"
recorded_measurement = "90 % of control"

[[record]]
compound = "CCOc1ccc(/C=C/C(C)=N/NC(N)=Nc2ccc(Cl)cc2)cc1"
readout = "T/C"
recorded_measurement = "97 % of control"


input: So what's the measured T/C for this one? NC(Cc1ccc[se]1)C(=O)O (configuration not stated)
output: 103 % of control

input: Need T/C, item "O=C([O-])CC(=O)[O-].[Cu+2].c1ccc(-c2ccccn2)nc1"
output: 108 % of control

input: Entry "OC1(O)/C=C\CCCCC/C=C\1" : reported T/C = ?
output: 100 % of control

input: Which T/C value is on record for "Cc1ncc(N)c2c1OC(C)(C)OC2" ?
output: 103 % of control
